Assay: Confirmation screen for delayed death inhibitors of the malarial parasite plastid, 96 hour incubation; also: nearly all actives have a fitted effect of over 60% in size
Conditions: P. falciparum luciferase growth in erythrocytes; series mostly up to 28.7 µM
About 1,400 (61%) of roughly 2,300 compounds were called active. Not shown: some 29% with an inconclusive outcome. Calls follow the shape of the dose curve; as a rule, active = well fitted inhibition curve with a large enough effect; inconclusive = small, poorly fitted or top-dose-only effect, or effect the other way; inactive = no such curve, though single readings can be large or run the other way. So high a share suggests a set chosen from earlier hits. The list shows a part of the results.
Output constraint: value belongs to active, inactive

Check out these entries, answers already filled in.
MOLECULE	LABEL
Cc1ccc(N(Cc2ccco2)C(=O)c2ccc(N3CCCCC3)c([N+](=O)[O-])c2)cc1	active
CCOc1ccc(S(=O)(=O)N2CCCC(C(=O)NC3CC3)C2)cc1Cl (configuration not stated)	active
COc1ccc(OC)c(-c2nc(C(=O)NC3CCN(Cc4ccccc4)CC3)cc3c2[nH]c2ccccc23)c1	active
Cc1cccc(N(C)C(=O)CN(C)S(=O)(=O)c2ccc3c(c2)c(=O)n(C)c(=O)n3C)c1	active
Nc1c(N(Cc2ccco2)C(=O)c2ccc(Br)cc2)c(=O)[nH]c(=O)n1Cc1ccccc1	inactive
O=S(=O)(c1cccs1)N1CCN(c2ccnc3cc(Cl)ccc23)CC1	active
COc1cc(OC)cc(C(=O)Nc2ccc3c(c2)CCCN3C(=O)c2cccs2)c1	active
CC1CCN(C(=O)C2CCCN(c3ncnc4c3nc3n4CCCCC3)C2)CC1 (configuration not stated)	active
CCCN1CCC(NC(=O)CC2C(=O)NCCN2Cc2cccc(OC)c2)CC1 (configuration not stated)	inactive
CC(C)NC(=O)c1onc(CSc2cccc3ccccc23)c1C(=O)O	inactive

Query: recorded result category for COc1ccc(C(=O)NC2CC2)cc1OC1CCN(C/C=C/c2ccccc2)CC1 in this test
active

What outcome does the record of this test show for CCOc1ccc(NC(=O)CC2C(=O)N(c3ccccc3)C(=O)N2CCOC)cc1 (configuration not stated) ?
inactive

Recorded test outcome, item CN(c1ccccc1)S(=O)(=O)c1nnc(NC(=O)COc2ccccc2F)s1
active

Assay result, entry NNc1nc(-c2ccccc2Cl)c2cc(Br)ccc2n1 — outcome?
active

What is the recorded call for this molecule in the test? CCN(CC)C(=O)COc1coc(CN2CCN(c3ccccc3)CC2)cc1=O
active

Please let me know the test result on file for COc1cccc([C@@H]2Oc3ccc(OC)cc3C(=O)[C@H]2O)c1 .
active

Which result was noted for this molecule in the test: CCOc1ccc(C(=O)Nc2ccc(N3CCN(C)CC3)cc2)cc1
active

###

Experiment: Confirmation screen for delayed death inhibitors of the malarial parasite plastid, 96 hour incubation; also: nearly all actives have a fitted effect of over 60% in size; also: potency is read from the fitted curve at half-maximal effect
Conditions: P. falciparum luciferase growth in erythrocytes; series mostly up to 28.7 µM
Out of some 2,300 compounds screened, about 1,400 (61%) were called active. About 29% were inconclusive and are not listed. The set was probably picked from earlier hits. This is one part of the list.
Would you kindly list Potency for each of these compounds?

COMPOUND	Potency
Cc1onc(-c2c(Cl)cccc2Cl)c1C(=O)Nc1nc(C(C)(C)C)cs1	6.31 µM (active)
Cc1nn(C(C)C(=O)Nc2ccccc2Cl)c(=O)c2nn(-c3ccccc3)c(C)c12 (stereo not drawn)	10 µM (active)
CCO[C@H]1OC(C(=O)N2CCN(Cc3ccc4c(c3)OCO4)CC2)=C[C@@H](c2ccc(C(F)(F)F)cc2)[C@@H]1CCCO	2 µM (active)
Cc1ccc(Nc2nc(NCc3ccco3)c3ccccc3n2)cc1	2 µM (active)

Each of the following entries comes with a recorded value; kindly state Potency for each.
1. N#CC1=C(N)Oc2n[nH]c(-c3cccnc3)c2C1c1ccc([N+](=O)[O-])o1 (stereo not drawn)
2. CCc1ccc(N/C(SCc2cccc(F)c2)=C(/C#N)C(=O)NCc2ccco2)cc1
3. Cc1onc(-c2c(Cl)cccc2Cl)c1C(=O)N=C(N)N1CC(C)OC(C)C1 (stereo not drawn)
4. O=C(CCNC(=O)c1ccc(Cl)cc1)NC1CCCc2ccccc21 (stereo not drawn)

1. 15.8 µM (active)
2. 7.94 µM (active)
3. 7.08 µM (active)
4. 12.6 µM (active)

###

Assay: Confirmation screen for delayed death inhibitors of the malarial parasite plastid, 96 hour incubation; also: nearly all actives have a fitted effect of over 60% in size; also: potency is read from the fitted curve at half-maximal effect
Conditions: P. falciparum luciferase growth in erythrocytes; series mostly up to 28.7 µM
Text: The goal of this screen is to discover new antimalarial compounds that act by inhibiting the development of the apicoplast in the malarial parasite Plasmodium falciparum. The biochemical processes that make this organelle essential for erythrocytic stage parasites are not well understood. […] Growth inhibition is detected by a decrease in luciferase activity. […]
Hit rate of the full screen: of about 2,300 compounds, about 1,400 (61%) were called active. About 29% were inconclusive and are not listed. The set was probably picked from earlier hits. Some of the results follow.
OBSERVED PROPERTY: Potency

Guide cases for Potency, answers given:
1. S=c1[nH]nc(COc2ccccc2)n1/N=C/C(Cl)=C/c1ccccc1 12.6 µM (active)
2. COc1cc(/C=C/C(=O)c2ccc(O)cc2)ccc1OCC#N 10 µM (active)
3. O=C(O)CCCN1C(=O)/C(=C\C(Cl)=C\c2ccccc2)SC1=S 5.01 µM (active)

Continue with the next molecule.
Potency lookup needed for COc1cccc(C(=O)/C=C/c2ccc(OCC#N)c(OC)c2)c1 , thanks.
3.98 µM (active)

###

Test: Confirmation screen for delayed death inhibitors of the malarial parasite plastid, 96 hour incubation; also: nearly all actives have a fitted effect of over 60% in size; also: potency is read from the fitted curve at half-maximal effect
Conditions: P. falciparum luciferase growth in erythrocytes; series mostly up to 28.7 µM
Excerpt: The goal of this screen is to discover new antimalarial compounds that act by inhibiting the development of the apicoplast in the malarial parasite Plasmodium falciparum. The biochemical processes that make this organelle essential for erythrocytic stage parasites are not well understood. […] Growth inhibition is detected by a decrease in luciferase activity. […]
Out of some 2,300 compounds screened, about 1,400 (61%) were called active. Roughly 29% stayed inconclusive and do not appear here. The set was probably picked from earlier hits. The list shows a part of the results. Square brackets hold non-standard residues; d marks the D form. Peptide text beside a SMILES is read from it. * marks the point of attachment. ξ: configuration not given here. ξF = NC(Cc1ccccc1)C(=O)O; Cbz = O=C(OCc1ccccc1)*
OBSERVED PROPERTY: Potency

Examples from the recorded data:
COMPOUND	Potency
O=[N+]([O-])c1c(Nc2ccccc2O)cc(Cl)c2nonc12	3.55 µM (active)
CCOC(=O)CNC(=O)C(Cc1ccccc1)NC(=O)OCc1ccccc1 (stereo not drawn) (Cbz-[ξF]-Gly-OEt)	inactive
COc1ccc(CN(CCC(c2ccccc2)c2ccco2)C(=O)c2ccco2)cc1 (stereo not drawn)	8.91 µM (active)
CCCCCCCOc1ccc(C2(C)NC(=O)NC2=O)cc1 (stereo not drawn)	8.91 µM (active)
O=C1c2ccccc2C(=Nc2ccccc2)C1c1cccc(Br)c1 (stereo not drawn)	3.98 µM (active)
COc1ccc(-c2nc3c(c(=O)c4ccccc4n3C)c(=O)n2Cc2ccccc2)cc1	7.08 µM (active)
COc1ccc(C)c2sc(NC(=O)CCS(=O)(=O)c3ccccc3)nc12	inactive

Please look at the following compound next.
Give its Potency value. Item: CC(C)CNC(=O)C(=O)Nc1cc2c3c(c1)C(C)C(=O)N3CCC2 (stereo not drawn)
14.1 µM (active)

###

Assay: Confirmation screen for delayed death inhibitors of the malarial parasite plastid, 96 hour incubation; also: nearly all actives have a fitted effect of over 60% in size
Conditions: P. falciparum luciferase growth in erythrocytes; series mostly up to 28.7 µM
Excerpt: The goal of this screen is to discover new antimalarial compounds that act by inhibiting the development of the apicoplast in the malarial parasite Plasmodium falciparum. The biochemical processes that make this organelle essential for erythrocytic stage parasites are not well understood. […] Growth inhibition is detected by a decrease in luciferase activity. […]
Out of some 2,300 compounds screened, about 1,400 (61%) were called active. Another 29% or so got no clear call; they are omitted. Calls come from the whole dose curve; as a rule, active = well fitted inhibition curve with a large enough effect; inconclusive = small, poorly fitted or top-dose-only effect, or effect the other way; inactive = no such curve, though single readings can be large or run the other way. So high a share suggests a set chosen from earlier hits. The list shows a part of the results.
Field 'call' accepts active, inactive

These recorded examples may help you get a feel for the data.
COMPOUND	LABEL
O=C(c1ccc(Br)cc1)C(CN1CCOCC1)c1ccccc1 (stereo not given)	active
O=C(O)c1ccc(C=C(c2nc3ccccc3s2)c2nc3ccccc3s2)cc1	active
O=C(Cn1c(=O)sc2ccccc21)Nc1nc2c(s1)CCCC2	inactive
Cc1cc(OCC(=O)N2CCCC2)cc(C)c1Cl	inactive

Hi, do you know how CCOC(=O)C1(CCc2ccccc2)CCN(Cc2ccccn2)CC1 came out in this test?
active

###

Assay: Confirmation screen for delayed death inhibitors of the malarial parasite plastid, 96 hour incubation; also: nearly all actives have a fitted effect of over 60% in size; also: potency is read from the fitted curve at half-maximal effect
Details: P. falciparum luciferase growth in erythrocytes; series mostly up to 28.7 µM
Hit rate of the full screen: of about 2,300 compounds, about 1,400 (61%) were called active. Not shown: some 29% with an inconclusive outcome. The set was probably picked from earlier hits. The list shows a part of the results.
OBSERVED PROPERTY: Potency

Below, each entry is followed by its recorded Potency result.
COMPOUND	Potency
Cc1ccc(C2C3=C(CC(C)(C)CC3=O)N=C3c4ccccc4C(=O)C32)cc1 (stereo not drawn)	7.08 µM (active)
O=C(NCC1CCCO1)c1ccc(Cn2c(=S)[nH]c3ccccc3c2=O)cc1 (stereo not drawn)	14.1 µM (active)
Cc1cc(Br)ccc1NC(=O)CNC(=O)Cn1ncc(Cl)c(Cl)c1=O	11.2 µM (active)
CC#CC#Cc1cccc(=O)o1	3.98 µM (active)
OC1(c2cccs2)CN(c2ccc(Br)cc2)C2=[N+]1CCCS2 (stereo not drawn)	8.91 µM (active)

# batch: return Potency for each of the 2 compounds below
1. O=C(COc1ccccc1)Nc1nnc(-c2ccc(F)cc2)o1
2. O=[N+]([O-])c1ccc(C[n+]2cccc3c4ccccc4ccc32)cc1

inactive
0.126 µM (active)

Parameter requested: Potency. Apply to each item below.
1. COc1ccc(-c2c(-c3cc(OC)cc(OC)c3)n(C)c3ccc(-c4ccc5[nH]ccc5c4)cc23)cc1
2. O=[N+]([O-])c1ccc(C(O)C[n+]2ccccc2)cc1 (stereo not drawn)

6.31 µM (active)
10 µM (active)

The following compounds each have a reported value; give each one's Potency.
1. Cc1ccc(S(=O)(=O)N(CC(=O)NCc2ccco2)c2ccccc2C)cc1
2. O=C(c1ccc(Cl)cc1)C(Cn1cncn1)C(Sc1ccccc1)c1ccccc1 (stereo not drawn)
3. O=C(O)c1cc2ccccc2c(N=Nc2cccnc2)c1O
4. COc1ccccc1-n1nnnc1S(=O)(=O)Cc1ccc(Cl)cc1
5. Cc1cc(NC(=O)CN2C(=O)NC(c3ccccc3)(c3ccc(C)c(C)c3)C2=O)no1 (stereo not drawn)
6. O=C(COc1ccccc1)NNc1c2ccccc2nc2ccccc12
7. CCOC(=O)C1CCN(c2c(NCc3ccc(C(=O)NCCC(C)C)cc3)c(=O)c2=O)CC1

["11.2 µM (active)", "12.6 µM (active)", "3.98 µM (active)", "7.08 µM (active)", "11.2 µM (active)", "5.01 µM (active)", "1.12 µM (active)"]

Quick one: give me Potency for each item below, same order please.
1. COc1cc(-c2nnc(NC(=O)CCS(=O)(=O)c3ccccc3)o2)cc(OC)c1OC
2. O=C(NCc1ccco1)c1cc2sccc2n1Cc1ccc(F)cc1
3. CC(C)C1C(=O)CC(c2ccccc2)NC1c1ccccc1 (stereo not drawn)
4. O=C(N/N=C(\CC(=O)c1cccs1)C(F)(F)F)c1ccncc1
5. CCC/C(C#CCCN1C(=O)c2ccccc2C1=O)=C1/c2ccccc2C(=O)N1c1ccccc1
6. Cc1coc2cc3oc(=O)c(CCC(=O)NCCCn4ccnc4)c(C)c3cc12

12.6 µM (active)
11.2 µM (active)
15.8 µM (active)
inactive
5.01 µM (active)
12.6 µM (active)

Requested read-out: Potency. Entry: Cc1ccc(S(=O)(=O)N(Cc2ccccc2)c2ccccc2C(=O)Nc2ccccc2C(=O)NCc2ccco2)cc1
2.24 µM (active)
